Sourced from patent US20040102423A1

Tested on: rabbit aortic rings
Test: Assay B: In vitro vascular smooth muscle response for AII (antagonist activity, pA2)
Type: cell-based
Settings: Oryctolagus cuniculus, two values in a cell = two determinations
Procedure: Assay B: In Vitro Vascular Smooth Muscle-Response for AII The compounds of the invention were tested for antagonist activity in rabbit aortic rings. […] Angiotensin II concentration-response curves were then recorded (3×10^−10 to 1×10^−5 M). […] The effectiveness of the test compound was expressed in terms of pA2 values and were calculated according to H. O. Schild [Br. J. Pharmacol. Chemother., 2, 189-206 (1947)]. […] Each test antagonist was evaluated in aorta rings from two rabbits.
endpoint.name: Kb (nM)
Dear colleague, please return just the value in nM, with no unit written.

Worked set:
INSERT INTO assay_data (compound, units, recorded_value) VALUES
  ('CCCCc1nn(/C(Cc2ccccc2)=C(/OCc2ccccc2)c2ccccc2)c(=O)n1Cc1ccc(-c2ccccc2-c2nn[nH]n2)cc1 [Compound 104]', 'nM', 10),
  ('CCCCc1nc(C(OC)OC)nn1Cc1ccc(-c2ccccc2-c2nnn[nH]2)cc1 [Compound 35]', 'nM', 56.2);

Fill in: Kb of CCCCn1nc(C(C#N)CCC)n(Cc2ccc(-c3ccccc3-c3nn[nH]n3)cc2)c1=O (stereo not drawn) [Compound 117] is ___ 316

----------
Recorded pIC50 by entry
biological target: angiotensin II AT1 receptor; experiment: Assay A: Angiotensin II binding activity, rat uterine membrane preparation, 125I-AII displacement
Reminder that pIC50 means the negative base-10 logarithm of the concentration expressed in mol/L.

Worked set:
INSERT INTO assay_data (smiles_str, tested_on, endpoint_name, recorded_value) VALUES
  ('CCCCc1nc2c(O)nnc(O)c2n1Cc1ccc(-c2ccccc2C(=O)O)cc1', 'angiotensin II AT1 receptor', 'pIC50', 7.60),
  ('CCCCc1nc(CN)n(Cc2ccc(-c3ccccc3-c3nnn[nH]3)cc2)n1', 'angiotensin II AT1 receptor', 'pIC50', 7.68),
  ('CCCCc1nc(Cc2ccc(-c3ccccc3-c3nnn[nH]3)cc2)n(CCCC)n1', 'angiotensin II AT1 receptor', 'pIC50', 9.57),
  ('CCCCc1nc(Cc2ccc(-c3ccccc3-c3nnn[nH]3)nc2)n(CC(CC)CC)n1', 'angiotensin II AT1 receptor', 'pIC50', 6.38),
  ('CCCCc1nc(Cc2ccc(-c3ccccc3C(=O)O)cc2)nn1CCCC', 'angiotensin II AT1 receptor', 'pIC50', 6.89),
  ('CCCCc1nc(CC)nn1Cc1ccc(-c2ccccc2C(=O)O)cc1', 'angiotensin II AT1 receptor', 'pIC50', 8.05);

Next item in the queue.
Fill in: pIC50 of "CCCCn1cc(CC(C)C)n(Cc2ccc(-c3ccccc3-c3nnn[nH]3)nc2)c1=O" is ___ 8.00

----------
Recorded pIC50 by entry
Molecular target: angiotensin II AT1 receptor
Assay: Assay A: Angiotensin II binding activity, rat uterine membrane preparation, 125I-AII displacement
Method: Assay A: Antiotensin II Binding Activity Compounds of the invention were tested for ability to bind to the smooth muscle angiotensin II receptor using a rat uterine membrane preparation. […] Rat uterine membranes were prepared from fresh tissue. […] Filters were assayed for radioactivity in a Micromedic gamma counter. […] Specific binding was calculated as total binding minus nonspecific binding. […] Binding data were analyzed by a nonlinear least-squares curve fitting program.
Reminder that pIC50 means the negative base-10 logarithm of the concentration expressed in mol/L.

Worked set:
INSERT INTO measurements (molecule, recorded_value) VALUES
  ('CCCCn1nc(C(=O)N(C)C(C)(C)C)nc1Cc1ccc(-c2ccccc2-c2nnn[nH]2)nc1 [Compound 182]', 7.23),
  ('CCCCc1cn(CCc2cccs2)c(=O)n1Cc1ccc(-c2ccccc2-c2nnn[nH]2)nc1 [Compound 220]', 8.15),
  ('CCCCc1nc(C(F)(F)CCC)n(Cc2ccc(-c3ccccc3-c3nnn[nH]3)nc2)n1 [Compound 259]', 7.27),
  ('CCCCc1nc(-c2ccccc2C)n(Cc2ccc(-c3ccccc3-c3nnn[nH]3)nc2)n1 [Compound 273]', 8.01),
  ('CCCCc1ncn(Cc2ccc(-c3ccccc3C(=O)O)cc2)n1 [Compound 30]', 7.66),
  ('CCCc1cn(CCC)c(=O)n1Cc1ccc(-c2ccccc2-c2nnn[nH]2)nc1 [Compound 197]', 7.85);

Fill in: pIC50 of CCCCn1nc(C(OCC)OCC)nc1Cc1ccc(-c2ccccc2-c2nnn[nH]2)nc1 [Compound 187] is ___ 6.11

Fill in: pIC50 of CCCCc1nc2c(OCC)nnc(OCC)c2n1Cc1ccc(-c2ccccc2-c2nnn[nH]2)cc1 [Compound 123] is ___ 7.30

Fill in: pIC50 of CCCCc1cn(CC(C)C)c(=O)n1Cc1ccc(-c2ccccc2-c2nnn[nH]2)nc1 [Compound 208] is ___ 7.66

Fill in: pIC50 of CCCCc1nc(CC)n(Cc2ccc(-c3ccccc3C(=O)O)cc2)n1 [Compound 87] is ___ 7.04

Fill in: pIC50 of CCCCc1nn(/C(Cc2ccccc2)=C(/OCc2ccccc2)c2ccccc2)c(=O)n1Cc1ccc(-c2ccccc2-c2nn[nH]n2)cc1 [Compound 104] is ___ 7.82

Fill in: pIC50 of CCCCn1nc(CCc2ccccc2)nc1Cc1ccc(-c2ccccc2-c2nnn[nH]2)cc1 [Compound 142] is ___ 8.70

Fill in: pIC50 of CCCCc1cn(-c2ccccc2Cl)c(=O)n1Cc1ccc(-c2ccccc2-c2nnn[nH]2)nc1 [Compound 227] is ___ 7.05

Fill in: pIC50 of C[C@]12CCC(=O)C=C1C1CC1[C@H]1[C@@H]3CC[C@@]4(CCC(=O)O4)[C@@]3(C)CC3O[C@]312 (stereo partly drawn) [Compound 9] is ___ 6.15

Fill in: pIC50 of CCCCc1nn(C(C)(C)C(=O)c2ccccc2)c(=O)n1Cc1ccc(-c2ccccc2-c2nn[nH]n2)cc1 [Compound 113] is ___ 7.92

Fill in: pIC50 of CCCCc1cn(CCCC)c(=O)n1Cc1ccc(-c2cccnc2-c2nnn[nH]2)cc1 [Compound 238] is ___ 8.77

Fill in: pIC50 of C[C@]12C=CC(=O)C=C1[C@@H]1CC1[C@H]1[C@@H]3CC[C@@]4(CCC(=O)O4)[C@@]3(C)CC3O[C@]312 (stereo partly drawn) [Compound 6] is ___ 5.89

Fill in: pIC50 of CCCCc1cn(C(C)C)c(=O)n1Cc1ccc(-c2ccccc2-c2nnn[nH]2)nc1 [Compound 211] is ___ 7.74

Fill in: pIC50 of CCCCn1cc(CCC2CC2)n(Cc2ccc(-c3ccccc3-c3nnn[nH]3)nc2)c1=O [Compound 204] is ___ 7.80

Fill in: pIC50 of CCCCc1nc(-c2ccccc2)nn1Cc1ccc(-c2ccccc2-c2nnn[nH]2)nc1 [Compound 270] is ___ 7.68

Fill in: pIC50 of CCCCc1nn(CCCCC(=O)OC)c(=O)n1Cc1ccc(-c2ccccc2-c2nn[nH]n2)cc1 [Compound 111] is ___ 7.35

Fill in: pIC50 of CCCCc1nc(CCC(=O)O)nn1Cc1ccc(-c2ccccc2-c2nnn[nH]2)cc1 [Compound 74] is ___ 8.19

Fill in: pIC50 of CCCCc1nc(-c2ccccc2C)nn1Cc1ccc(-c2ccccc2-c2nnn[nH]2)nc1 [Compound 272] is ___ 7.01

Fill in: pIC50 of CCCCc1nc(Cc2ccc(-c3ccccc3-c3nnn[nH]3)cc2)nn1CCCC [Compound 140] is ___ 10.51

----------
test system: rabbit aortic rings; experiment: Assay B: In vitro vascular smooth muscle response for AII (antagonist activity, pA2); format: cell-based; conditions: Oryctolagus cuniculus, two values in a cell = two determinations
endpoint.name: Kb (nM)
Dear colleague, please return just the value in nM, with no unit written.

INSERT INTO assay_data (molecule, tested_on, recorded_value) VALUES
  ('CCCCn1nc(-c2ccccc2Cl)nc1Cc1ccc(-c2ccccc2-c2nnn[nH]2)nc1', 'rabbit aortic rings', 16.6),
  ('CCCCc1cn(-c2ccccc2CC)c(=O)n1Cc1ccc(-c2ccccc2-c2nnn[nH]2)nc1', 'rabbit aortic rings', 13.2),
  ('CCCCc1nn(CC(=O)O)c(=O)n1Cc1ccc(-c2ccccc2-c2nn[nH]n2)cc1', 'rabbit aortic rings', 7.94);

Next item in the queue.
Fill in: Kb of C[C@]12CCC(=O)C=C1[C@@H]1CC1[C@H]1[C@@H]3CC[C@@]4(CCC(=O)O4)[C@@]3(C)CC3O[C@]312 (stereo partly shown) is ___ 2

----------
Recorded IC50 by entry
biological target: angiotensin II AT1 receptor; assay: Assay A: Angiotensin II binding activity, rat uterine membrane preparation, 125I-AII displacement
Dear colleague, please return just the value in nM, with no unit written.

Worked set:
INSERT INTO assay_data (compound, units, recorded_value) VALUES
  ('CCCCc1nc(C(=O)CCC)nn1Cc1ccc(-c2ccccc2-c2nnn[nH]2)cc1 [Compound 42]', 'nM', 370),
  ('CCCCc1nc(CCC)nn1Cc1ccc(-c2ccccc2-c2nnn[nH]2)cc1 [Compound 25]', 'nM', 480),
  ('CCCCc1nc(CN)nn1Cc1ccc(-c2ccccc2-c2nnn[nH]2)cc1 [Compound 38]', 'nM', 10),
  ('CCCCc1nc(CCCC2CCCCC2)nn1Cc1ccc(-c2ccccc2-c2nnn[nH]2)cc1 [Compound 69]', 'nM', 15),
  ('CCCCc1nc(CCc2ccccc2)nn1Cc1ccc(-c2ccccc2-c2nnn[nH]2)nc1 [Compound 264]', 'nM', 11),
  ('CCCn1nc(C(OC)OC)nc1Cc1ccc(-c2ccccc2-c2nnn[nH]2)nc1 [Compound 185]', 'nM', 6.5),
  ('CCCCc1nc(CNC(=O)OC(C)(C)C)n(Cc2ccc(-c3ccccc3-c3nnn[nH]3)cc2)n1 [Compound 45]', 'nM', 4.4),
  ('CCCCn1cc(C2CCCCC2)n(Cc2ccc(-c3ccccc3-c3nnn[nH]3)nc2)c1=O [Compound 202]', 'nM', 12);

Fill in: IC50 of CCCCCc1nc(CCCCC)n(Cc2ccc(-c3ccccc3-c3nnn[nH]3)cc2)n1 [Compound 24] is ___ 10

Fill in: IC50 of CCCCc1nc(CF)nn1Cc1ccc(-c2ccccc2-c2nnn[nH]2)cc1 [Compound 70] is ___ 44

Fill in: IC50 of CCCCn1cc(CCC(C)C)n(Cc2ccc(-c3ccccc3-c3nnn[nH]3)nc2)c1=O [Compound 200] is ___ 20

Fill in: IC50 of CCCCc1nc(CCC(=O)O)n(Cc2ccc(-c3ccccc3-c3nnn[nH]3)cc2)n1 [Compound 75] is ___ 570

Fill in: IC50 of COC(=O)CC[C@]1(O)CC[C@H]2[C@@H]3[C@H](C(=O)OC)CC4=CC(=O)CC[C@]4(C)C34O[C@@H]4C[C@@]21C (stereo partly drawn) [Compound 2] is ___ 95

Fill in: IC50 of CCCCc1nc(C(=O)NC)nn1Cc1ccc(-c2ccccc2-c2nnn[nH]2)nc1 [Compound 268] is ___ 520

Fill in: IC50 of CCCCc1nn(CC(=O)c2ccccc2)c(=O)n1Cc1ccc(-c2ccccc2-c2nn[nH]n2)cc1 [Compound 93] is ___ 480

Fill in: IC50 of CCCCc1cn(CCCC)c(=O)n1Cc1ccc(-c2ccccc2-c2nnn[nH]2)cc1 [Compound 143] is ___ 0.052

Fill in: IC50 of CCCCc1nc(C(=O)CCC)nn1Cc1ccc(-c2ccccc2-c2nnn[nH]2)cc1 [Compound 41] is ___ 3700

Fill in: IC50 of CCCCc1nc(Cc2ccc(-c3ccccc3-c3nnn[nH]3)nc2)n(CC(C)(C)C)n1 [Compound 195] is ___ 34
